# Tested on: Bifidobacterium longum subsp. longum
# assayInfo: growth AUC relative to DMSO control (median of replicates) (fraction); higher = more growth (less inhibition), active = hit call of the paper
# assayConditions: 20 µM; 24 h
parameter: growth AUC
Answer with the value's number alone.

Here is how some compounds turned out for growth AUC.
compound	growth AUC
C/C(=N\NC(=O)Nc1cc(F)cc(F)c1)c1ncccc1C(=O)[O-].[Na+]	0.987
CN(C)NC(=O)CCC(=O)O	1.01
Oc1ccccc1-c1ccccc1	0.965
C[C@@H](Oc1ccc(Oc2ccc(C(F)(F)F)cn2)cc1)C(=O)O	0.985
CC(C)(C)C(=O)C(Oc1ccc(Cl)cc1)n1cncn1 (configuration not stated)	1.02
CCOc1ccccc1OS(=O)(=O)NC(=O)Nc1nc(OC)cc(OC)n1	0.967

input: Which growth AUC value belongs to CNC(=O)O/N=C(\C)SC ?
output: 0.91

input: Which growth AUC value belongs to O=C1C=CC(=O)C=C1 ?
output: 1.01

input: Which growth AUC value belongs to CC(C)OC(=O)Nc1cccc(Cl)c1 ?
output: 0.981

input: Which growth AUC value belongs to CCOP(=S)(OCC)SCCS(=O)(=O)CC ?
output: 1.01

input: Which growth AUC value belongs to CCCCCCCCCCCCC1=C(OC(C)=O)C(=O)c2ccccc2C1=O ?
output: 0.827

input: Which growth AUC value belongs to Cc1cc(C)c(C2=C(OC(=O)CC(C)(C)C)C3(CCCC3)OC2=O)c(C)c1 ?
output: 1.05

----------
# System: Bacteroides stercoris
# assayInfo: growth AUC relative to DMSO control (median of replicates) (fraction); higher = more growth (less inhibition), active = hit call of the paper
# assayConditions: 20 µM; 24 h
parameter: growth AUC
Answer with the value's number alone.

compound	experimentalResult
NCCO.O=C(O)c1nc(Cl)ccc1Cl	1.02
CCCN(CCC)C(=O)SCc1ccccc1	1.13
COc1ccccc1N	1.16

input: Which growth AUC value belongs to CCOP(=O)(OCC)Oc1ccc(S(C)(=O)=O)cc1 ?
output: 0.937

input: Which growth AUC value belongs to CC(C)=NOCCOC(=O)[C@@H](C)Oc1ccc(Oc2cnc3cc(Cl)ccc3n2)cc1 ?
output: 0.876

input: Which growth AUC value belongs to COP(=S)(NC(C)C)Oc1ccc(C)cc1[N+](=O)[O-] (stereo unspecified) ?
output: 1.09

----------
Form field: growth AUC (one value per entry).
# Test system: Fusobacterium nucleatum subsp. animalis
# assayInfo: growth AUC relative to DMSO control (median of replicates) (fraction); higher = more growth (less inhibition), active = hit call of the paper
# assayConditions: 20 µM; 24 h
Answer with the value's number alone.

molecule	growth AUC
CC(C)OC(=O)Nc1cccc(Cl)c1	1.06
c1ccc2c(c1)ccc1c3ccccc3sc21	1.01
O=C1CCc2cccc3c2N1CC3	1.08
CCCN(CC1CC1)c1c([N+](=O)[O-])cc(C(F)(F)F)cc1[N+](=O)[O-]	1.09

input: Which growth AUC value belongs to CCCOP(=S)(OCCC)SCC(=O)N1CCCCC1C (stereo not given) ?
output: 1.08

input: Which growth AUC value belongs to CCCCN(CCCC)SN(C)C(=O)Oc1cccc2c1OC(C)(C)C2 ?
output: 1.02

input: Which growth AUC value belongs to CN(C)C(=O)C(c1ccccc1)c1ccccc1 ?
output: 0.975
